- target: T1, Recombinant human IL-18 (human, UniProt Q14116 37-193)
- T1 sequence: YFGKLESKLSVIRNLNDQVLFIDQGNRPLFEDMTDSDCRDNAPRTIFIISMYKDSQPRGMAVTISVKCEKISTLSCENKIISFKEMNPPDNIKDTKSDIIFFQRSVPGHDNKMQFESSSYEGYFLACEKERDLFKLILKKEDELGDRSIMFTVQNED
- testSummary: cell-based or functional assay
valueKind: IC50, inhibition of IFN-γ release, human whole blood, recombinant human IL-18 (7 nM)

binder: MOR10222_E1Q_N30S_M54Y (antibody, human IgG1, lambda, L234A L235A, V domains shown) VH: QVQLVQSGAEVKKPGSSVKVSCKASGGTFSSYAISWVRQAPGQGLEWMGNIIPYTGQTYYAQKFQGRVTITADESTSTAYMELSSLRSEDTAVYYCARAAYHPLVFDNWGQGTLVTVSS VL: QSVLTQPPSASGTPGQRVTISCSGSSSNIGNHYVNWYQQLPGTAPKLLIYRNNHRPSGVPDRFSGSKSGTSASLAISGLQSEDEADYYCQSWDYSGFSTVFGGGTKLTVLG
resultNumber: 34.3

binder: MOR10222_E1Q_N30S_M54I (antibody, human IgG1, lambda, L234A L235A, V domains shown) VH: QVQLVQSGAEVKKPGSSVKVSCKASGGTFSSYAISWVRQAPGQGLEWMGNIIPITGQTYYAQKFQGRVTITADESTSTAYMELSSLRSEDTAVYYCARAAYHPLVFDNWGQGTLVTVSS VL: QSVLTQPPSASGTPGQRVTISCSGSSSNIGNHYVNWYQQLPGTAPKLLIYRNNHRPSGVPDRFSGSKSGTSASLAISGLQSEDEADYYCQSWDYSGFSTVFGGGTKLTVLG
resultNumber: 47.3

binder: MOR9464_N30Q (antibody, human IgG1, lambda, L234A L235A, V domains shown) VH: EVQLVQSGAEVKKPGSSVKVSCKASGGTFQSYAISWVRQAPGQGLEWMGNIIPMTGQTYYAQKFQGRVTITADESTSTAYMELSSLRSEDTAVYYCARAAYHPLVFDNWGQGTLVTVSS VL: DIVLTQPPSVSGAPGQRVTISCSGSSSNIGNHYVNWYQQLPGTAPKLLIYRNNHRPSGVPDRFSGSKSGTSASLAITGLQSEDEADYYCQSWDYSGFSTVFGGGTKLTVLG
resultNumber: 8.1
